The values you see were collected from patent US20070225303A1.

Test system: spleen cells
Experiment: cells
Type: cell-based
Conditions: 24 h, read-out: Minimum effective concentration (interferon inducing activity), CD(SD)IGS rat spleen cells, 24 hours incubation; interferon in supernatant by L929/vesicular stomatitis virus bioassay
MEASUREMENT_LABEL: minimal effective concentration (µM)
Expressed in µM, but write only the number.

Observe how each entry below is paired with its result.
>>> recorded_result("COC(=O)Cc1cccc(Cn2c(O)nc3c(N)nc(SCCCCO)nc32)c1")
0.01
>>> recorded_result("COC(=O)Cc1cccc(Cn2c(O)nc3c(N)nc(OCCO)nc32)c1")
0.1

Data request, read-out minimal effective concentration, for CCCCOc1nc(N)c2nc(O)n(CCc3cccc(CC(=O)OC)c3)c2n1
0.03

----------
Experiment: Metabolic stability test on rat liver S9
Type: in vitro ADME
Details: rat liver S9 with NADPH, 1 μM test compound, 37° C.; residual rate after reaction, LC/MS
Entries and their measured Residual rate follow.
Expressed in %, but write only the number.

Observe how each entry below is paired with its result.
>>> recorded_result("CCCCOc1nc(N)c2[nH]c(=O)n(Cc3ccc(OC)c(CC(=O)OC)c3)c2n1")
2
>>> recorded_result("CCCCOc1nc(N)c2nc(O)n(Cc3cc(CC(=O)OC)ccn3)c2n1")
0

Data request, read-out Residual rate, for CCCCOc1nc(N)c2nc(O)n(Cc3ccc(CC(=O)OC)s3)c2n1
0

----------
Entries and their measured Residual rate follow.
Assay: Metabolic stability test on rat liver S9
Format: in vitro ADME
Conditions: rat liver S9 with NADPH, 1 μM test compound, 37° C.; residual rate after reaction, LC/MS
Expressed in %, but write only the number.

Observe how each entry below is paired with its result.
>>> recorded_result("CCCCOc1nc(N)c2[nH]c(=O)n(Cc3ccc(F)c(CC(=O)OC)c3)c2n1 [Example 21]")
1
>>> recorded_result("CCCCOc1nc(N)c2nc(O)n(Cc3cccc(CC(=O)OC)n3)c2n1 [Example 18]")
0
>>> recorded_result("CCOCCOc1nc(N)c2nc(O)n(Cc3cccc(CC(=O)OC)c3)c2n1 [Example 12]")
0
>>> recorded_result("CCCCOc1nc(N)c2nc(O)n(CCCc3cccc(CC(=O)OC)c3)c2n1 [Example 10]")
1
>>> recorded_result("COC(=O)Cc1cccc(Cn2c(O)nc3c(N)nc(OCC4CCCCC4)nc32)c1 [Example 13]")
11
>>> recorded_result("COC(=O)Cc1cccc(Cn2c(O)nc3c(N)nc(OCCCO)nc32)c1 [Example 4]")
8
>>> recorded_result("CCCCOc1nc(N)c2[nH]c(=O)n(Cc3cc(CC(=O)OC)ccc3OC)c2n1 [Example 20]")
0
>>> recorded_result("COC(=O)CCc1nc(N)c2nc(O)n(Cc3cccc(CC(=O)OC)c3)c2n1 [Example 15]")
0

Now examine the next entry.
Data request, read-out Residual rate, for CCCCOc1nc(N)c2nc(O)n(CCc3cccc(CC(=O)OC)c3)c2n1 [Example 9]
0

----------
Experiment: Metabolic stability test using human plasma
Type: in vitro ADME
Details: 1 μM test compound, 37° C. for 15 minutes, residual amount per pre-metabolization concentration as 100%
Protocol: Plasma was prepared from fresh human blood and the test compound (containing 1% DMSO) of the final concentration of 1 μM was added thereto. After a metabolic reaction by plasma esterase was conducted at 37° C. for 15 minutes, the test compound was extracted with ethyl acetate, and quantitatively analyzed by reverse phase HPLC. The metabolic stability of the test compound was shown by the residual amount (%) per the concentration of pre-metabolization as 100%.
Entries and their measured Residual rate follow.
Expressed in %, but write only the number.

Data request, read-out Residual rate, for COC(=O)Cc1cccc(Cn2c(O)nc3c(N)nc(OCCO)nc32)c1
5.8

Data request, read-out Residual rate, for COC(=O)Cc1cccc(Cn2c(O)nc3c(N)nc(OCC(O)CO)nc32)c1 (stereo not shown)
20.9

Data request, read-out Residual rate, for CCCCOc1nc(N)c2nc(O)n(CCc3cccc(CC(=O)OC)c3)c2n1
7.9

Data request, read-out Residual rate, for COC(=O)Cc1cccc(Cn2c(O)nc3c(N)nc(OCCCO)nc32)c1
3.2
